B1: RHOBTB3 (parent)
chain: KVVEAHKIVLCAVSHVFMLLFNVK

variants of: B1; experiment: protein stability index of a GFP-peptide fusion (GPS, HEK-293T) (PSI 1-6); higher = more stable; details: c terminus: a fixed tail appended;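 further: lentivirally expressed fusions sorted by FACS into six bins by GFP to DsRed ratio, PSI derived from sequencing read proportions per bin multiplied by bin number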
I'd be grateful if you could share measured protein stability index for these entries.
One number for each entry.

{"columns": ["mutation_name", "readout_kind", "endpoint_value"],
 "data": [
  ["V13G", "protein stability index", 2.42]
]}

Hi! Can you tell me protein stability index for each of these variants?
1. K7F
2. K24W
3. L19D
4. E4K
5. S14A
6. K7A

**Result**
1: 2.99; 2: 2.42; 3: 3.41; 4: 3.02; 5: 2.36; 6: 3.36
